Tested on: HCV-Luc (recombinant HCV carrying the Renilla luciferase reporter)
Assay: HCV-Luc infection assay
Format: cell-based, hepatitis C virus (HCV)
Conditions: Huh-7.5.1, read-out: HCV-Luc EC50
Property Name: EC50 (nM)
Answers are plain numbers, in nM.

State measured EC50 of the compound COc1ccc(-c2oc3ccc(-c4ccc5c(c4)OCO5)nc3c2C#CC2(O)CCCCC2)cc1 with HCV-Luc (recombinant HCV carrying the Renilla luciferase reporter).
180

* * *

Assay: in vitro
Format: cell-based
Conditions: human
Property Name: CC50 at 48 h

Name the recorded CC50 at 48 h of the compound listed here: COc1ccc(-c2oc3ccc(-c4ccc5c(c4)OCO5)nc3c2C#CC2(O)CCCCC2)cc1
> 100 µM

* * *

Assay: In vitro microsomal stability
Type: in vitro ADME
Settings: CD-1, mouse, liver microsomes
Property Name: half-life

Name the recorded half-life of the molecule listed here: COc1ccc(-c2oc3ccc(-c4ccc5c(c4)OCO5)nc3c2C#CC2(O)CCCCC2)cc1 [10{21}]
> 30 min

* * *

Assay: in vitro
Format: cell-based
Settings: human
Property Name: CC50 (µM)
One number for each entry, in µM.

Name the recorded CC50 of the compound listed here: COc1ccc(-c2oc3ccc(-c4ccc5c(c4)OCO5)nc3c2C#CC2(O)CCCCC2)cc1
92.3

* * *

System: Huh7.5.1 cells
Assay: in vitro
Assay type: cell-based
Property Name: CC50 (µM)
Numbers only, in µM.

Name the recorded CC50 of the compound listed here: COc1ccc(-c2ccc3oc(-c4ccc(OC)cc4)c(C#CCCO)c3c2)cc1 [2{1}]
70.9
